- Test system: SNB-19 CNS
- Assay Protocol: NCI tumour cell line growth inhibition, 48 h
Recorded TGI by entry

Consider the following illustrative entries.
Molecule	Quantity Measured	Result
COC(=O)C1=C(C(=O)OC)C2(CCCCCC2=O)OC1=O (stereo unspecified)	TGI	> 100 µM
COC1(OC)CC(CO)(CNc2nc(N)nc(Cl)c2C=O)C1	TGI	> 100 µM
Cc1ccc(Cc2nc(=S)[nH][nH]2)cc1	TGI	> 100 µM

*Q* # query: TGI of entry `CSC(=NC#N)S/C=C/C(=O)c1ccc(Cl)cc1`
*A* > 100 µM

*Q* # query: TGI of entry `O=C1c2cccc(O)c2C(=O)c2cccc(O)c21`
*A* > 100 µM

*Q* # query: TGI of entry `O=c1[nH]c2[nH]c(-c3ccc(Br)cc3)cc2c2ccccc12`
*A* > 100 µM

*Q* # query: TGI of entry `C=C1C(=O)O[C@H]2[C@H]1CC/C(COC(=O)/C=C\C(=O)NCc1ccc(Cn3c(=O)sn(CCCI)c3=O)cc1)=C\CC[C@@]1(C)O[C@@H]21`
*A* 1.69 µM

*Q* # query: TGI of entry CC(=O)OC1CC2C(C)(C)C(=O)C=C[C@]2(C)C2CC[C@]3(C)C(OCC(=O)[C@H]3c3ccoc3)[C@]12C (stereo partly specified)
*A* 21.2 µM

* * *

Recorded GI50 by entry
- Test system: MCF7 breast
- Assay Protocol: NCI tumour cell line growth inhibition, 48 h

Consider the following illustrative entries.
Compound	Experimental System	GI50
Cc1ccc(NC2=N[C@]34CC(=O)CC[C@]3(C)[C@H]3CC[C@]5(C)C(=O)CC[C@H]5[C@@H]3C[C@@H]4S2)c(C)c1	MCF7 breast	2310 nM
CC(=O)OC1CC2C(C)(C)C(=O)C=C[C@]2(C)C2CC[C@]3(C)C(OCC(=O)[C@H]3c3ccoc3)[C@]12C (stereo partly drawn)	MCF7 breast	6600 nM
OCc1ccc(N(Cc2ccc(F)cc2)CC2CC2)cc1Cl	MCF7 breast	585 nM

*Q* # query: GI50 of entry `COc1ccc2nc3cccc([N+](=O)[O-])c3c(NCCNCCO)c2c1`
*A* 10.2 nM

*Q* # query: GI50 of entry `Cn1cc(-c2ccc(-c3cn(C)c4ccc(Cl)cc34)[nH]2)c2cc(Cl)ccc21`
*A* 2850 nM

*Q* # query: GI50 of entry `CCOC(=O)c1nnn(-c2no[n+]([O-])c2-c2ccc(OC)cc2)c1COc1cccc2cccnc12`
*A* 1970 nM

*Q* # query: GI50 of entry `O=S(=O)(Nc1ccc(Cl)cc1)c1ccc(-c2cnc(C3CC3)o2)cc1`
*A* 383 nM

*Q* # query: GI50 of entry `O=C(N/N=C/c1c(Cl)cccc1Cl)c1cccnc1Nc1cccc(C(F)(F)F)c1`
*A* 3920 nM

*Q* # query: GI50 of entry `O=c1ccc2nc(C(F)(F)F)nn(-c3ccccc3)c-2c1`
*A* 495 nM

* * *

- System: A549 NSCLC
- Assay Protocol: NCI tumour cell line growth inhibition, 48 h; in the data active = GI50 below about 0.43 µM; inactive = the rest
Please state which outcome applies, choosing from true (1) = active, false (0) = inactive

These solved cases illustrate the format of a correct answer.
Molecule	Experimental System	Group Label
CC1(C)CC[C@]2(C(N)=O)CC[C@]3(C)C(=CC[C@@H]4[C@@]5(C)C/C(=C/c6cccnc6)C(=O)C(C)(C)[C@@H]5CC[C@]43C)[C@@H]2C1	A549 NSCLC	false (0)
O=CN/N=C/c1ccc(Cl)c([N+](=O)[O-])c1	A549 NSCLC	true (1)
C[C@]12CCC(=O)CC1CC[C@@H]1C2CC[C@@]2(C)C1CC[C@@H]2OC(=O)CC[Se][Se]CCC(=O)O[C@H]1CCC2[C@@H]3CCC4CC(=O)CC[C@]4(C)C3CC[C@@]21C (some centres undefined)	A549 NSCLC	false (0)

Alright, here's another molecule for you.
*Q* Hello, I am checking results. What call was entered for O=c1cc(NCC(O)CN2CCOCC2)n(Cc2ccccc2)c(=O)n1Cc1ccccc1 (centres undefined) ?
*A* false (0)

* * *

- System: SNB-75 CNS
- Assay Protocol: NCI tumour cell line growth inhibition, 48 h
Quantity Measured: GI50

Structure Smiles String	Experimental System	GI50
Cc1ccc(Cl)cc1-c1nc(N)nc(Nc2ccc(Br)cc2)n1	SNB-75 CNS	0.029 µM
CN(C)CCCn1c2c(c3ccc(-c4ccn[nH]4)cc3c1=O)C(=O)c1ccccc1-2	SNB-75 CNS	1.39 µM
Oc1cccc(-c2nc(-c3n[nH]c(=S)n3-c3ccccc3)cc3c2[nH]c2ccccc23)c1	SNB-75 CNS	1.72 µM
O=C(Nc1cccc(Cl)c1)Nc1nccs1	SNB-75 CNS	20 µM
C(=C1c2ccccc2-c2ccccc21)c1ccncc1	SNB-75 CNS	6.5 µM

Shifting focus to the molecule that follows.
*Q* # query: GI50 of entry `ClCCn1cnc2c(SCc3ccccc3Cl)ncnc21`
*A* 6.69 µM

* * *

- System: SN12C renal
- Assay Protocol: NCI tumour cell line growth inhibition, 48 h
Recorded TGI by entry

Consider the following illustrative entries.
Compound	TGI
CCCCOC(=O)C(=O)C(CC(CC)C(=O)c1ccccc1)C(=O)C=C(C)C (stereo unspecified)	> 100 µM
CC1(C)C2CCC13C(=O)C1OC3(C2)C2C(=O)N(c3ccccc3)C(=O)C12 (stereo unspecified)	> 100 µM

*Q* # query: TGI of entry `Cc1cc2c3ccccc3nc2c2cc[nH]c(C)c12`
*A* 18.5 µM

*Q* # query: TGI of entry `O=C(N/N=C/c1c(Cl)cccc1Cl)c1cccnc1Nc1cccc(C(F)(F)F)c1`
*A* 98.9 µM

* * *

Recorded TGI by entry
- System: EKVX NSCLC
- Assay Protocol: NCI tumour cell line growth inhibition, 48 h
Give the quantity in µM, number only.

Compound	Quantity Measured	Numeric Value
CCOC(=O)C1=C(OC(OCC)C(C)[Se]c2ccccc2)CCC1 (centres undefined)	TGI	59.1
C=C1C(=O)O[C@H]2[C@H]1CC/C(COC(=O)CCSSCCC(=O)OC/C1=C/CC[C@@]3(C)O[C@H]3[C@H]3OC(=O)C(=C)[C@@H]3CC1)=C\CC[C@@]1(C)O[C@@H]21	TGI	3.47
Cc1nn(CCO)c(C)c1N=[N+]([O-])c1c(C)nn(CCO)c1C	TGI	20.6

*Q* # query: TGI of entry CCC1(O)CC(OC2CC(N(C)C)C(OC3CC(O)C(OC4CCC(=O)C(C)O4)C(C)O3)C(C)O2)c2c(cc3c(c2O)C(=O)c2c(O)ccc(O)c2C3=O)C1C(=O)OC (centres undefined)
*A* 0.116

* * *

Recorded TGI by entry
- Tested on: NCI-H226 lung
- Assay Protocol: NCI tumour cell line growth inhibition, 48 h

Compound	TGI
CCCC(=O)c1c(NOC2OCC(OC(C)=O)C(OC(C)=O)C2OC(C)=O)nc(OC)n(C)c1=O (stereo unspecified)	> 100 µM

*Q* # query: TGI of entry `COc1ccc(Oc2ccc3cc4c(cc3c2O)OCO4)c2cc(C)oc12`
*A* 83.8 µM

*Q* # query: TGI of entry `CC(=O)c1cc(I)c(O)c2ncccc12`
*A* 5.7 µM

*Q* # query: TGI of entry CC(O)CCc1ccc(Oc2c3ccccc3nc3occc23)cc1 (stereo unspecified)
*A* 16.8 µM

*Q* # query: TGI of entry `COc1cccc(N=Cc2cc(OC)c(OC)c(OC)c2)c1`
*A* > 100 µM

*Q* # query: TGI of entry `Cc1cc(C(C)C)cc(O)c(=O)c1`
*A* > 100 µM

* * *

- System: LOX IMVI melanoma
- Assay Protocol: NCI tumour cell line growth inhibition, 48 h
Recorded TGI by entry
Give the quantity in µM, number only.

Consider the following illustrative entries.
Molecule	Scale Unit	TGI
COc1cc2c(oc(=O)c3cc(C)cc(OC)c32)c2c(C3OC(C)C(O)C(C)(O)C3O)ccc(O)c12 (stereo not given)	µM	1.71
CN(C)CCCNCc1ccc(-c2ccc(F)c(Cl)c2)o1	µM	18.2
O=C(Nc1ccc(Cl)c(Cl)c1)C(=O)C(C(=O)c1ccccc1F)C1OC(=O)c2ccccc21 (stereo not given)	µM	50.4
[Cl-].[Nd+3].[O-]/N=C(\c1ccccc1)c1ccccn1.[O-]/N=C(\c1ccccc1)c1ccccn1.[O-]/N=C(\c1ccccc1)c1ccccn1	µM	58
O=C(Nc1ccc([As]=[As]c2ccc(NC(=O)c3ccccc3)cc2)cc1)c1ccccc1 (stereo not given)	µM	0.786
ClCCn1cnc2c(SCc3ccccc3Cl)ncnc21	µM	11.9
CCN(CC)CCCNc1[nH]ncc2cc3c(nc4ccccc43)c(C)c12	µM	20.6
COc1ccc(N2CCN(C(=O)c3ccc(C(F)(F)F)nc3Nc3cc(Cl)ccc3C)CC2)cc1	µM	22.1

*Q* # query: TGI of entry C[C@]12CCC(=O)CC1CC[C@@H]1C2CC[C@@]2(C)C1CC[C@@H]2OC(=O)CC[Se][Se]CCC(=O)O[C@H]1CCC2[C@@H]3CCC4CC(=O)CC[C@]4(C)C3CC[C@@]21C (stereo not given in full)
*A* 5.07
